# System: gene editing with dCas9
# assay comment: Screen of 322 new SSAP proteins, gene editing activity with dCas9 (Table 5)
# Type: cell-based
# test conditions: normalized
For each record, check the reported dCas9 with SSAP activity (normalized): if it is below -0.3 write Yes, else write No.

SSAP_89: SEQ ID NO: 258; Pantoea brenneri (protein, listed as Pantoea brenneri) SNQPPIASADLQKTQQSKQVANKTPEQTLVGFMNQPAMKSQLAAALPRHMTADRMIRIVTTEIRKTPQLAQCDQSSFIGAVVQCSQLGLEPGSALGHAYLLPFGNGRSKSGQSNVQLIIGYRGMIDLARRSGQIVSLSARVVRADDEFSFEYGLDENLVHRPGENEDAPITHVYAVARLKDGGTQFEVMTVKQVEKVKAQSKASSNGPWVTHWEEMAKKTVIRRLFKYLPVSIEMQKAVVLDEKAESDVDQDNASVLSAEYSVLESGDEATN :: No
SSAP_60: SEQ ID NO: 229 (protein) ASKNEAIEVSPAEIASVKEKPASIVKAEKAKKEPCALVKYEDAEGREVVLTREDIINTISSNPRITDKEIKLFIELARAQKLNPFTREIFITKYGDYPATFIVGKDVFTKRAQSNPLFKGMQAGIIVQRGNAVDQREGSATFGDEMLIGGWCKVYVQGYDVPIYDSVSFNEYAARKTDGTLNAMWASKPATMIRKVAIVHALREAFPSDFQGLYDQSEMGLSGQGGE :: No
SSAP_285: SEQ ID NO: 454; Chitinophaga lutea (protein, listed as Chitinophaga lutea) SNVNAPAAPVKSKIEVLKDIMNAPSVQEQFQNALRENSGVFVASVIDLFNSDTYLQNCEPKQVVMECLKAATLKLPINKNLGFAYVVPYKSNGKQIPQFQIGYKGYIQLAMRTGQYRIINADKVYEGEYRTKNKLTGEFDLSGTATSETVVGYFAHIEMLNGFAKTLYMTKEKVAAHAKKYSKSFGKETSPWHTEFDAMALKTVLRNLLSHYGYLSVEMMGAMNADIESDQVGSEVSQTINDKANKQEMTFDDAEVVDDDEKEQNPI :: Yes

Lab note: confirm whether the reported dCas9 with SSAP activity (normalized) for this molecule is below -0.3, equality not counting. molecule: SSAP_249: SEQ ID NO: 418; environmental Halophage eHP-30 (protein, environmental Halophage eHP-30) TEQNQTPAKTESKSPIKAQLYKDNVQQRFQELLGERASAFMTSVMSVVKDNDQLSQAEPSSVLNAAMTAATLDMPIDNNLGMAYIVPYKDGKSGKTYAQFQLGYKGFIQLAQRSGQFKTISATPVRQGQIVTADPLRGYEFDFTQGQDKEVVGYAAYFALLNGFEKTLYMSKAEMEQHAASYAAGYKKGYSNWNRKFDEMALKTVIKQLLSKYAPLSVDMQKAQQTDQTVSVEEPNAIEQQEAAPEIDASSNNNQNQ Yes

Lab note: confirm whether the reported dCas9 with SSAP activity (normalized) for this molecule is below -0.3, equality not counting. molecule: SSAP_179: SEQ ID NO: 348; Acetoanaerobium noterae (protein, listed as Acetoanaerobium noterae) SNLKNELAKKANNSVTDGNKEPQTIKDWIKVMEPAIKKALPSVITPERFTRMALTAISVNPKLAECTPKSFMGSLMNAAQLGLEPNTPLGQAYLIPYKNKGNMEVQFQIGYKGLIELAYRSGEFANIYAKEVFENDEFEYEFGLEPVLKHKPASGNRGEVIAYYAVFKLTNGGFGFEVMSKEDITNHAKTYSQAYSSSYSPWSKNFDEMAKKTVLKKVLKYAPIKVEFVKQIVQDSTIKTEINSDMTEVESQNVFEAEETDYEVIDQEETK Yes

Lab note: confirm whether the reported dCas9 with SSAP activity (normalized) for this molecule is below -0.3, equality not counting. molecule: SSAP_22: SEQ ID NO: 191 (protein) SNELMTKAVTYEVNNEEVKLSGQIVKQYLTSGQAVTDQEVTMFIQLCRYQHLNPFLNEAYLVKFNGKPAQIITSKEAFMKRAESNPNYAGLKAGCIVERNGELIYTEGAFTLKTDNILGAWADVIRKDRREPTHVEISMDEFSKSQATWKSMPATMIRKTAIVNALREAFPQDLGALYTEDDKNPNEATQTTYKQEPEVNTTKTADVLAKKFSGAPQIKSVENVQESEEESNNASNHGEATEPVNNVEEPTATAEVEQGQLL Yes

Lab note: confirm whether the reported dCas9 with SSAP activity (normalized) for this molecule is below -0.3, equality not counting. molecule: SSAP_177: SEQ ID NO: 346; Geomicrobium sp. JCM 19055 (protein, listed as Geomicrobium sp.) GYKGMIDLARRSGHIKSIYAHTVHANDEFEYELGLEPKLVHKPATGDRGNMEYAYAVAHFVDGGYQFEVFSHHDIEQVKKRSKAGNFGPWKTDYEEMAKKTVVRRMFKYLPISIEIQQHASQDETVRRDITEEAEKVDNIIDLPNYEDPNNIDVPDEEQDEQKDEKQKQQGSAEEIALDFK No

Lab note: confirm whether the reported dCas9 with SSAP activity (normalized) for this molecule is below -0.3, equality not counting. molecule: SSAP_319: SEQ ID NO: 488; Helicobacter trogontum (protein, listed as Helicobacter trogontum) SNITTIQRKNEALALLENKEIQERLCALCGNEASKDKFKASLLNIALDSNLSACSMQSIVKASLDIAGLKLSLNKNLGKAYIVPRKVKIGNDYITEARIDIGYKGWLELAKRSKLSVKAHSVFDCDDFVYSVDGVDEYMKLTPNFELRQEHDSAWVKEHLKGIVVGIKDLKSGDSEVKFVSKGTLLKIMQKNDSVKNGKYSAYTDWLHEMLLAKAIKSCLSKTAMSEDTFYLIISNNKLFI No
